Below: a set of entries, each annotated with reported MIC.
Test system: Mycobacterium tuberculosis
Experiment: Antimycobacterial activity against Mycobacterium tuberculosis H37Rv grown on Lowenstein-Jensen solid medium assessed as growth inhibition incubated with compound dissolved in water measured after 4 weeks
Type: functional
Settings: 672 h
measurement_kind: MIC (µg/mL)

| compound | number |
| --- | --- |
| CCCC/C=C/CCCCCCCCCC1=C(O)C(=O)C=C(OC)C1=O | 50 |
| COc1cc(O)c(C/C=C/c2ccccc2)c(O)c1OC | 48.3 |
| COc1ccc(C2Oc3cc(O)c(OC)c(O)c3C(=O)C2OC)cc1 (stereo unspecified) | 59.3 |
| COc1cc(-c2cc(=O)c3c(O)cc(O)cc3o2)c(OC)c(OC)c1OC | 48 |
| COc1cc(O)c2c(=O)c(O)c(-c3ccc(O)cc3)oc2c1 | 59.7 |
| Cc1cc(O)c2c(c1)C(=O)c1cc(O)cc(O)c1C2=O | 50.3 |
| COc1ccc(-c2coc3cc(O)cc(O)c3c2=O)cc1C=O | 36.3 |
| C[C@@H]1CCC2(CO)C(C(=O)O)=CCCC2[C@@]1(C)CCc1ccoc1 (stereo partly specified) | 36.7 |
| c1c2c(cc3c1C1CCN4CCC[C@@]56CCN3[C@@]1(CC5)C46)OCO2 (stereo partly specified) | 38.7 |
| CCCCCCCCCCCC1=C(O)C(=O)C=C(O)C1=O | 49 |
| CCC1=C(O)C(=O)C=C(O)C1=O | 62.3 |

Hello, the source for this data is ChEMBL document CHEMBL3044747, in case you need it.
